- systemUnderTest: CYP11A1 (Homo sapiens, UniProt P05108)
- Construct: host or cells: NCI-H295R human adrenocortical cancer cells
- Sequence (P05108 40-521): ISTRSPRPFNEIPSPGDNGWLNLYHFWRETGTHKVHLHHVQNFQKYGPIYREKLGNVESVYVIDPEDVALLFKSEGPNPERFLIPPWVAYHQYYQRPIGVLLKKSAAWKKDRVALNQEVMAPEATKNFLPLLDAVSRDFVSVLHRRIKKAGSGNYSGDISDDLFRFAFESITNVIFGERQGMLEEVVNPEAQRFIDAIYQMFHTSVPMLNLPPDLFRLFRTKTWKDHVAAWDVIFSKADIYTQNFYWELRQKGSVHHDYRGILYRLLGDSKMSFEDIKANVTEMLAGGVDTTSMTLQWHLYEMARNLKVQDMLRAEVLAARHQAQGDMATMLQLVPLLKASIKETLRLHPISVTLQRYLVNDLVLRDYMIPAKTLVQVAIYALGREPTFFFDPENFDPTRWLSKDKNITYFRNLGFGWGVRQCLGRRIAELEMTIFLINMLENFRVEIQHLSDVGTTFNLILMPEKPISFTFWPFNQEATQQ
- assay: Testosterone synthesis inhibition in NCI-H295R cells (testosterone ELISA of culture supernatant)
- Type: cell-based
- measurementSetup: 24 hours incubation, testosterone in culture supernatant by ELISA
recordedMetric: IC50

// recorded IC50 for CCn1c(CN2Cc3ccccc3C2)ccc(OCC2CCN(S(=O)(=O)C3CC3)CC2)c1=O [Compound 26] : 2.45 nM

// recorded IC50 for CCn1c(CN2Cc3ccccc3C2)ccc(OCC2CCN(S(=O)(=O)O)CC2)c1=O [Compound 31] : > 1000 nM

// recorded IC50 for CCn1c(CN2Cc3ccccc3C2)ccc(OCC2CCN(S(N)(=O)=O)CC2)c1=O [Compound 28] : 7.02 nM

// recorded IC50 for Cn1c(CN2Cc3ccccc3C2)ccc(OCC2CCN(S(C)(=O)=O)CC2)c1=O [Compound 1] : 17.7 nM

// recorded IC50 for [2H]C([2H])([2H])n1c(CN2Cc3ccccc3C2)ccc(OCC2CCN(S(=O)(=O)C(F)(F)F)CC2)c1=O [Compound 16] : 40.2 nM

// recorded IC50 for CCn1c(CN2Cc3ccccc3C2)ccc(OCC2CCN(S(=O)(=O)NS(N)(=O)=O)CC2)c1=O [Compound 30] : 4.04 nM

// recorded IC50 for CCn1c(CN2Cc3ccccc3C2)ccc(OCC2CCN(S(C)(=O)=O)CC2)c1=O [Compound 25] : 3.78 nM

All values here come from patent EP4644384A1.
